# TARGET_ENTITY: tetanus neurotoxin (TeNT), authentic tetanus holotoxin (Clostridium tetani, UniProt P04958 2-1315)
# Sequence (P04958 2-457 limits assumed, chain 1 of 2): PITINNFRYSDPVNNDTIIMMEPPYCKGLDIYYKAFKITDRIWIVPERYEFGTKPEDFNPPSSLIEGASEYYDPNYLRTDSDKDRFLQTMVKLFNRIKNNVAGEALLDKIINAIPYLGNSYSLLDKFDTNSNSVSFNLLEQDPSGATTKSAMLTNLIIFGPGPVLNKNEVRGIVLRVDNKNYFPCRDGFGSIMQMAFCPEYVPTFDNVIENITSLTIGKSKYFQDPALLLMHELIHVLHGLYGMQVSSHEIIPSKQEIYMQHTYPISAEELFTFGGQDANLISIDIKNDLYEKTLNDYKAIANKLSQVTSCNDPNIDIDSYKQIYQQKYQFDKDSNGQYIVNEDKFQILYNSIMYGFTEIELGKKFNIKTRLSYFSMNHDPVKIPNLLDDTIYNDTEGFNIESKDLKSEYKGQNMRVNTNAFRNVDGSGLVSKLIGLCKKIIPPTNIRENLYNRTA
# Sequence (P04958 458-1315 limits assumed, chain 2 of 2): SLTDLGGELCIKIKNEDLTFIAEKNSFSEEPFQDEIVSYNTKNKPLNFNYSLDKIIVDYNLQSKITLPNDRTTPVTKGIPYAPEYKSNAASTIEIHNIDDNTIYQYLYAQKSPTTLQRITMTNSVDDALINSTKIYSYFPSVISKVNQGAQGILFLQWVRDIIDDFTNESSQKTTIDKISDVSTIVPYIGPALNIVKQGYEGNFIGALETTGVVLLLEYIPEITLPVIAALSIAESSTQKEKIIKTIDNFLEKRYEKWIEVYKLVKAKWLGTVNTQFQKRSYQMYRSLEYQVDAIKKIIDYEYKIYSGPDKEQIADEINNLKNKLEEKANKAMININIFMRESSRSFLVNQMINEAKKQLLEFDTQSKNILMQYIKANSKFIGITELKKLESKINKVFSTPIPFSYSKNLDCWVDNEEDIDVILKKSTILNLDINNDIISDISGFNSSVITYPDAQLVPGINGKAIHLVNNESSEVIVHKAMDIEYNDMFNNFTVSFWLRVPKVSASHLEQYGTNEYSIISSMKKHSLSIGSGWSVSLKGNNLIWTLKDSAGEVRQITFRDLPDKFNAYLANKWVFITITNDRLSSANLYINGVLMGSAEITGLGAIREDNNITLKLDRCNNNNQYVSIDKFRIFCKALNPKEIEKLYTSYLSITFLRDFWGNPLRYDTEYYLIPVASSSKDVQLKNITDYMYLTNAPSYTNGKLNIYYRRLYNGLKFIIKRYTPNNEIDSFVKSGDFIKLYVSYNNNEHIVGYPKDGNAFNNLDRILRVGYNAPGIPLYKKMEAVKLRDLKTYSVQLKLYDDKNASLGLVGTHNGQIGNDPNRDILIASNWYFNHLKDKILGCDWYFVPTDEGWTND
# PROTOCOL_NOTES: ELISA, cAb-TT2 captured TeNT, E. coli supernatant; also: test concentration or dose not given here
OBSERVED_PROPERTY: absorbance at 450 nm (A450)
Give the number; A450 is assumed, so skip it.

Ask | Please indicate absorbance at 450 nm recorded for SVT06 (VHH) VHH: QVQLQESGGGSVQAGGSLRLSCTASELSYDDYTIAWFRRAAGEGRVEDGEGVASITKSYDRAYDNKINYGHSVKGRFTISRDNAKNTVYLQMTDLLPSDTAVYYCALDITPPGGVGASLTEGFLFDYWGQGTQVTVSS
Reply | 0.683

Ask | Please indicate absorbance at 450 nm recorded for SVT05 (VHH) VHH: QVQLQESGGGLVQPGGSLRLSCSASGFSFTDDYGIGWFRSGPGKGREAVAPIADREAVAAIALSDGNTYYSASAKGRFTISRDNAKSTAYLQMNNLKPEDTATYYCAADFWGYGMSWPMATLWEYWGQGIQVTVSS
Reply | 0.548

Ask | Please indicate absorbance at 450 nm recorded for SVT15 (VHH) VHH: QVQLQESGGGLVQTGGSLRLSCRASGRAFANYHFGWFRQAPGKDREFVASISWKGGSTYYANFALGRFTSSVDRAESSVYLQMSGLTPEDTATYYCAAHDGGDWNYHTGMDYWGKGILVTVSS
Reply | 0.68

Ask | Please indicate absorbance at 450 nm recorded for SVT34 (VHH) VHH: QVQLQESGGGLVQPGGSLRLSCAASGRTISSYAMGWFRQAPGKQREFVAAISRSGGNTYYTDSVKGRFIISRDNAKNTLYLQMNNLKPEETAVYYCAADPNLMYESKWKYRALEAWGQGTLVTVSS
Reply | 0.483
